- procedureText: qHTS profiling for inhibitors of Plasmodium falciparum proliferation (AID 504749)
- setupConditions: P. falciparum in erythrocytes, SYBR Green DNA, 72 h; at 28.7 µM (top of the series); parasite line B
Results filed as inconclusive are left out.
Tick T if activity, negative = inhibition is 10% or greater. Tick F if activity, negative = inhibition is less than 10%.

Reference set (6 entries):
>>> assignedcategory("CC(Cc1ccccc1)NCc1ccccc1Cl (stereo not drawn)")
"F"
>>> assignedcategory("COc1ccc(C(=O)N2CCCC2=O)cc1")
"T"
>>> assignedcategory("CCN(CC)C(C)C(=O)c1ccccc1 (stereo not drawn)")
"T"
>>> assignedcategory("CC(C)(C)OC(=O)c1ncn2c1[C@@H]1CCCN1C(=O)c1c(Br)cccc1-2")
"T"
>>> assignedcategory("OC(O)C(Cl)(Cl)Cl")
"T"
>>> assignedcategory("CCCCCCCCC(=O)NCc1ccc(O)c(OC)c1")
"F"

Request: Does activity, negative = inhibition meet or surpass 10% for "CN1C[C@@H](NS(=O)(=O)N(C)C)C[C@@H]2c3cccc4c3c(cn4C)C[C@H]21" ?
Response: F

Request: Does activity, negative = inhibition meet or surpass 10% for "COP(=S)(OC)Oc1ccc(Sc2ccc(OP(=S)(OC)OC)cc2)cc1" ?
Response: F
